These entries and their values trace back to patent US11066447B2.

- System: C. parapsilosis MMX 2323 ATCC 22019
- assay explanation: MIC assay (CLSI microdilution)
- Type: cell-based, Candida parapsilosis
- measurement conditions: ATCC22019, Without Tween-80; read-out: MIC
Numbered stars: 1 amine (or outer) side, 2 acyl side, 3 side chain; on linkers, the order of the positions; unused ones are H or OH. Square brackets hold non-standard residues; d marks the D form. Peptide text beside a SMILES is read from it. X8 = CC(=O)N1CCN(c2ccc(-c3cccc(C[C@@H](C(=O)[*:2])N(C)[*:1])c3)cn2)CC1; X21 = CC1CCN(c2cc(-c3cccc(C[C@@H](C(=O)[*:2])N(C)[*:1])c3)ccn2)CC1; X12 = CN(C)c1cc(-c2cccc(C[C@@H](C(=O)[*:2])N(C)[*:1])c2)ccn1; Hmp(2R,3S) = CC[C@H](C)[C@@H](O)C(=O)O; NMeVal(β-OH) = CN[C@H](C(=O)O)C(C)(C)O; NMeV = CN[C@H](C(=O)O)C(C)C

molecule	MIC / µg/mL
CC[C@H](C)[C@@H]1NC(=O)[C@@H]2CCCN2C(=O)[C@H](Cc2cccc(-c3ccc(N4CCN(C(C)=O)CC4)nc3)c2)N(C)C(=O)[C@H](Cc2ccccc2)NC(=O)[C@H](C(C)C)N(C)C(=O)[C@@H]([C@@H](C)CC)OC(=O)[C@H](C(C)(C)O)N(C)C(=O)[C@H](CC(C)C)NC(=O)[C@H](C(C)C)N(C)C1=O [Compound 32] (cyclo(F[X8]PI[NMeV]L[NMeVal(β-OH)][Hmp(2R,3S)][NMeV]))	2
CC[C@H](C)[C@@H]1NC(=O)[C@@H]2CCCN2C(=O)[C@H](Cc2cccc(-c3ccnc(N4CCC(C)CC4)c3)c2)N(C)C(=O)[C@H](Cc2ccccc2)NC(=O)[C@H](C(C)C)N(C)C(=O)[C@@H]([C@@H](C)CC)OC(=O)[C@H](C(C)(C)O)N(C)C(=O)[C@H](CC(C)C)NC(=O)[C@H](C(C)C)N(C)C1=O [Compound 23] (cyclo(F[X21]PI[NMeV]L[NMeVal(β-OH)][Hmp(2R,3S)][NMeV]))	1
CC[C@H](C)[C@@H]1NC(=O)[C@@H]2CCCN2C(=O)[C@H](Cc2cccc(-c3ccnc(N(C)C)c3)c2)N(C)C(=O)[C@H](Cc2ccccc2)NC(=O)[C@H](C(C)C)N(C)C(=O)[C@@H]([C@@H](C)CC)OC(=O)[C@H](C(C)(C)O)N(C)C(=O)[C@H](CC(C)C)NC(=O)[C@H](C(C)C)N(C)C1=O [Compound 22] (cyclo(F[X12]PI[NMeV]L[NMeVal(β-OH)][Hmp(2R,3S)][NMeV]))	1
